system: NCI/ADR-RES; assay: NCI tumour cell line growth inhibition, 48 h
Activity calls are given as the source filed them. Rule as the data show it: active = GI50 up to about 1.1 µM and inactive = higher.
endpoint: GI50

- molecule: "CC1=CCC[C@]2(C)C1=CC(=O)O[C@H]2c1ccoc1"
  studyTarget: "NCI/ADR-RES"
  dataValue: "> 100 µM (inactive)"
- molecule: "COC(=O)c1ccccc1C1CN=NC12Cc1c(ccc3c1CCC3)C2=O (centres undefined)"
  studyTarget: "NCI/ADR-RES"
  dataValue: "31.1 µM (inactive)"
- molecule: "COC(=O)c1c(C)cccc1C1CN=NC12Cc1cccc(C)c1C2=O (centres undefined)"
  studyTarget: "NCI/ADR-RES"
  dataValue: "21.7 µM (inactive)"
- molecule: "[O-][n+]1ccc(NO)c2ccccc21"
  studyTarget: "NCI/ADR-RES"
  dataValue: "1.54 µM (inactive)"
- molecule: "CCCCCCOc1ccc(NC2=C(Cl)C(=O)c3c(O)ccc(O)c3C2=O)cc1"
  studyTarget: "NCI/ADR-RES"
  dataValue: "2.55 µM (inactive)"
- molecule: "Cn1c(=O)cc(NNc2ccc(Br)cc2)[nH]c1=O"
  studyTarget: "NCI/ADR-RES"
  dataValue: "31.1 µM (inactive)"
- molecule: "CC(=O)OCC1OC(n2ncc(=O)[nH]c2=O)C(OC(C)=O)C1OC(C)=O (centres undefined)"
  studyTarget: "NCI/ADR-RES"
  dataValue: "61.7 µM (inactive)"
- molecule: "Nc1ccc2c(=O)cc(-c3ccc(Br)s3)[nH]c2n1"
  studyTarget: "NCI/ADR-RES"
  dataValue: "2.6 µM (inactive)"
- molecule: "Cn1c(-c2cccs2)cc(-c2ccccc2)c1-c1cccs1"
  studyTarget: "NCI/ADR-RES"
  dataValue: "> 100 µM (inactive)"
- molecule: "COC(=O)C1C(=O)CC(C)(O)C(C(=O)OC)C1c1ccc(N(C)C)cc1 (centres undefined)"
  studyTarget: "NCI/ADR-RES"
  dataValue: "> 100 µM (inactive)"
- molecule: "COc1ccc2o/c(=N\\c3ccc(F)cc3)c(C(N)=O)cc2c1"
  studyTarget: "NCI/ADR-RES"
  dataValue: "30.2 µM (inactive)"
- molecule: "Cc1ccc2c(O)cc(-c3ccc4ccccc4c3)nc2n1"
  studyTarget: "NCI/ADR-RES"
  dataValue: "4.58 µM (inactive)"
- molecule: "CC(=O)Nc1ccc(Nc2cc(=O)n(C)c(=O)[nH]2)cc1"
  studyTarget: "NCI/ADR-RES"
  dataValue: "> 100 µM (inactive)"
- molecule: "COC(=O)[C@@H]1C[C@@H]2c3ccccc3N(S(=O)(=O)c3ccccc3)[C@@H]2N1C(=O)OC"
  studyTarget: "NCI/ADR-RES"
  dataValue: "> 100 µM (inactive)"
